System: UniProt:O00763 | Read-out: pIC50
Sequence (O00763 whole entry): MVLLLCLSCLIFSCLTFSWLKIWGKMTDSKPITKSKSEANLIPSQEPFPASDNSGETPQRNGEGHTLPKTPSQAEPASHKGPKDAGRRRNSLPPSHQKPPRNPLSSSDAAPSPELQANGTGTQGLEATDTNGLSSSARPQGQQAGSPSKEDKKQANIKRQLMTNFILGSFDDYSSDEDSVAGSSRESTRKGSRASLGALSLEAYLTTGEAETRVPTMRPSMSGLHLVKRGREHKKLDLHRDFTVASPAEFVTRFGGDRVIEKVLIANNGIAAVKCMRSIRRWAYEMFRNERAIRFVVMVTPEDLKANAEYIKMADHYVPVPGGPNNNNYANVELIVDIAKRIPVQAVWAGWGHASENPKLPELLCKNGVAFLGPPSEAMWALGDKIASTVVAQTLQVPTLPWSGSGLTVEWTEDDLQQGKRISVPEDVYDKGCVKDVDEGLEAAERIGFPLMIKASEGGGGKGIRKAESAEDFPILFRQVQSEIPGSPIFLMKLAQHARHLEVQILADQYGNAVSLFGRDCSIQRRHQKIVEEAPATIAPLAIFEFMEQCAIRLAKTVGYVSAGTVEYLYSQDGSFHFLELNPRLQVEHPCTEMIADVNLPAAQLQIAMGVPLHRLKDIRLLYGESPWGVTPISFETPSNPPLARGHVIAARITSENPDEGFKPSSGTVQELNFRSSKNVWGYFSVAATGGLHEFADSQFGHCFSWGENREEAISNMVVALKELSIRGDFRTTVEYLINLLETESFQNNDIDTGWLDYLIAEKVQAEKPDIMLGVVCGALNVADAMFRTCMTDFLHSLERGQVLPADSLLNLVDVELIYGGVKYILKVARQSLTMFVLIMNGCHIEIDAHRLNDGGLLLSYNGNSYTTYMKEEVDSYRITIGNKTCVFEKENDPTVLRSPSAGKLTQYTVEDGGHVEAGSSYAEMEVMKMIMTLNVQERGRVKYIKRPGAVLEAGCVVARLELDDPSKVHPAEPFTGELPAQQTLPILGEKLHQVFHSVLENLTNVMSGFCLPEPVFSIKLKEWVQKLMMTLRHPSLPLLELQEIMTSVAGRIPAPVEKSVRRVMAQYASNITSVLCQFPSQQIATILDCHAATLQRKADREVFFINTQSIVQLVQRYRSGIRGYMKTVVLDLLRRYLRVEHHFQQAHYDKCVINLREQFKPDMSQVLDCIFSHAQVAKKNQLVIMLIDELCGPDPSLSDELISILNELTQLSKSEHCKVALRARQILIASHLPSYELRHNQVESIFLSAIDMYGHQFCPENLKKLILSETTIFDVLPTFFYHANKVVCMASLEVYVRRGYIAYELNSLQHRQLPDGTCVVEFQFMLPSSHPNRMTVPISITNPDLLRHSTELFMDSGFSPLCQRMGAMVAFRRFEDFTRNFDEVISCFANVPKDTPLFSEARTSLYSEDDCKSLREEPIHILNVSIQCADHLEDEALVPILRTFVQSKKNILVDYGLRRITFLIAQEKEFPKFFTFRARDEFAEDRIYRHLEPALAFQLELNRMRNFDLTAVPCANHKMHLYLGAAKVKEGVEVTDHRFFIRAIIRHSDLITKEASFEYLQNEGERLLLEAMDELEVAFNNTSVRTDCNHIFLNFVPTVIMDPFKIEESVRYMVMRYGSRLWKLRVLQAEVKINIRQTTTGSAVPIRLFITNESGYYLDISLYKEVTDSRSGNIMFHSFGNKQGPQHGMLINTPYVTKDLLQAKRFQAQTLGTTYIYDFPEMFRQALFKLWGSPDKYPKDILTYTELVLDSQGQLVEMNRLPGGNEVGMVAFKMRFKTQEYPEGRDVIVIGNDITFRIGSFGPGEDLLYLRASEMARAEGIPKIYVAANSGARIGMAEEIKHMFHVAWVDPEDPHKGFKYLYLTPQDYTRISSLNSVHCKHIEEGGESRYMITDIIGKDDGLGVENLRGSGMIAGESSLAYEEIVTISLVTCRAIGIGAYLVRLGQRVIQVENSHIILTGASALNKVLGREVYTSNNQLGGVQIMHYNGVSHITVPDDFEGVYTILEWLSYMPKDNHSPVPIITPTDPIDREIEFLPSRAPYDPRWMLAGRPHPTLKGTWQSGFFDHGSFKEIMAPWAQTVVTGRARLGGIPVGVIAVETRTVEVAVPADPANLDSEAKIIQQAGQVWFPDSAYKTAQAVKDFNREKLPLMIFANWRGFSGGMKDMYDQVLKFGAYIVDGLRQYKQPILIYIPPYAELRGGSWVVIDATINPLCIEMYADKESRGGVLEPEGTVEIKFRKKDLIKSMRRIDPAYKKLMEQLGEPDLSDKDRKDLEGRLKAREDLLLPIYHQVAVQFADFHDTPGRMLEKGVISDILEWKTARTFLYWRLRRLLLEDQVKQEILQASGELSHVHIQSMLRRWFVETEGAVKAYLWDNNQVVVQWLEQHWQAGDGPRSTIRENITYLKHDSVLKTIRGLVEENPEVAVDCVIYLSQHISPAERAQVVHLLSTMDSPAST
By convention, pIC50 is the negative base-10 log of a molar concentration.

Task: Item under review: CCC1=NC2(CCCN(C3CCN(C(=O)c4c(NC(N)=O)sc5ccccc45)CC3)C2)C(=O)N1CC (racemic) . Reported pIC50?
Result: 7.37

Task: Item under review: CNC(=O)Nc1sc2ccccc2c1C(=O)N1CCC(N2CCCC3(CCN(C(C)C)C3=O)C2)CC1 (racemic) . Reported pIC50?
Result: 7.74

Task: Item under review: CNC(=O)Nc1sc2nc(C)ccc2c1C(=O)N1CCC(N2CCC[C@]3(CC(=O)N(C(C)C)C3=O)C2)CC1 . Reported pIC50?
Result: 8.07

Task: Item under review: CCNC(=O)Nc1sc2ccccc2c1C(=O)N1CCC(N2CCCC3(C2)C(=O)N(CC)C(=O)N3C)CC1 (racemic) . Reported pIC50?
Result: 7.29

Task: Item under review: CCNC(=O)Nc1sc2nc(C)ccc2c1C(=O)N1CCC(N2CCC[C@]3(CCN(C(C)C)C3=O)C2)CC1 . Reported pIC50?
Result: 8.05

Task: Item under review: CCNC(=O)Nc1sc2nc(C)ccc2c1C(=O)N1CCC(N2CCCC3(C2)NC(=O)N(C(C)C)C3=O)CC1 (racemic) . Reported pIC50?
Result: 7.77

Task: Item under review: CCNC(=O)Nc1sc2ccccc2c1C(=O)N1CCC(N2CCCC3(CCNC3=O)C2)CC1 (racemic) . Reported pIC50?
Result: 7.10

Task: Item under review: CCN1C(=O)C2(CCCN(C3CCN(C(=O)c4c(NC(N)=O)sc5ccccc45)CC3)C2)N=C1C(C)C (racemic) . Reported pIC50?
Result: 7.77

Task: Item under review: CCNC(=O)Nc1sc2ccccc2c1C(=O)N1CCC(N2CCCC3(C2)NC(=O)N(CC)C3=O)CC1 (racemic) . Reported pIC50?
Result: 7.66

Task: Item under review: CCNC(=O)Nc1sc2nc(C)ccc2c1C(=O)N1CCC(N2CCCC3(C2)OC(=O)N(C(C)C)C3=O)CC1 (configuration not stated) . Reported pIC50?
Result: 7.82

Task: Item under review: CCNC(=O)Nc1sc2ncccc2c1C(=O)N1CCC(N2CCCC3(C2)CC(C)(C)OC3=O)CC1 (racemic) . Reported pIC50?
Result: 7.80

Task: Item under review: CCN1C(=O)C2(CCCN(C3CCN(C(=O)c4c(NC(N)=O)sc5ccccc45)CC3)C2)N=C1C (racemic) . Reported pIC50?
Result: 7.12

---

# SYSTEM NAME: Acetyl-CoA carboxylase 1 (Homo sapiens)
Please use rule met for IC50 under 90 nM and rule not met for everything else, ties included.

Task: Does CCNC(=O)Nc1sc2nc(C)ccc2c1C(=O)N1CCC(N2CCC[C@]3(CCN(C(C)C)C3=O)C2)CC1 have IC50 strictly under 90 nM?
Result: rule not met

Task: Does CCNC(=O)Nc1sc2nc(C)ccc2c1C(=O)N1CCC(N2CCCC3(C2)N=C(C)N(C(C)C)C3=O)CC1 (stereo not drawn) have IC50 strictly under 90 nM?
Result: rule met

Task: Does CCNC(=O)Nc1sc2ccccc2c1C(=O)N1CCC(N2CCCC3(C2)C(=O)N(CC)C(=O)N3C)CC1 (racemic) have IC50 strictly under 90 nM?
Result: rule not met

Task: Does CNC(=O)Nc1sc2nc(C)ccc2c1C(=O)N1CCC(N2CCC[C@]3(CC(=O)N(C(C)C)C3=O)C2)CC1 have IC50 strictly under 90 nM?
Result: rule not met

Task: Does CNC(=O)Nc1sc2nc(C)ccc2c1C(=O)N1CCC(N2CCC[C@@]3(C2)CC(C)(C)OC3=O)CC1 have IC50 strictly under 90 nM?
Result: rule met

Task: Does CCNC(=O)Nc1sc2nc(C)ccc2c1C(=O)N1CCC(N2CCCC3(C2)CC(C)(C)OC3=O)CC1 (racemic) have IC50 strictly under 90 nM?
Result: rule met

Task: Does CCNC(=O)Nc1sc2ncccc2c1C(=O)N1CCC(N2CCCC3(C2)CC(C)(C)OC3=O)CC1 (racemic) have IC50 strictly under 90 nM?
Result: rule not met

Task: Does CCNC(=O)Nc1sc2cccnc2c1C(=O)N1CCC(N2CCCC3(C2)CC(C)(C)OC3=O)CC1 (racemic) have IC50 strictly under 90 nM?
Result: rule not met

---

# ASSAY PROCEDURE: Clearance in human hepatic microsomes assessed per mg protein at 1 uM after 20 mins by HPLC analysis
# Format: ADME, Microsome
# CONDITIONS: liver microsomes, read-out: CLH
Lab note: compare microsomal CLint at 1 µM against 80 µL/min/mg. Equal or greater, write TRUE. Smaller, write FALSE.

Task: In plain terms: is recorded microsomal CLint at 1 µM at least 80 µL/min/mg for CCNC(=O)Nc1sc2ccccc2c1C(=O)N1CCC(N2CCCC3(C2)OC(=O)N(CC)C3=O)CC1 (racemic) ?
Result: TRUE

Task: In plain terms: is recorded microsomal CLint at 1 µM at least 80 µL/min/mg for CCNC(=O)Nc1sc2nc(C)ccc2c1C(=O)N1CCC(N2CCCC3(C2)OC(=O)N(C(C)C)C3=O)CC1 (configuration not stated) ?
Result: FALSE

Task: In plain terms: is recorded microsomal CLint at 1 µM at least 80 µL/min/mg for CCN1C(=O)OC2(CCCN(C3CCN(C(=O)c4c(NC(N)=O)sc5ccccc45)CC3)C2)C1=O (racemic) ?
Result: FALSE

Task: In plain terms: is recorded microsomal CLint at 1 µM at least 80 µL/min/mg for CCN1C(=O)C2(CCCN(C3CCN(C(=O)c4c(NC(N)=O)sc5ccccc45)CC3)C2)N=C1C (racemic) ?
Result: FALSE

Task: In plain terms: is recorded microsomal CLint at 1 µM at least 80 µL/min/mg for CCNC(=O)Nc1sc2cccnc2c1C(=O)N1CCC(N2CCCC3(C2)CC(C)(C)OC3=O)CC1 (racemic) ?
Result: TRUE

Task: In plain terms: is recorded microsomal CLint at 1 µM at least 80 µL/min/mg for CCNC(=O)Nc1sc2ccccc2c1C(=O)N1CCC(N2CCCC3(CCNC3=O)C2)CC1 (racemic) ?
Result: FALSE

Task: In plain terms: is recorded microsomal CLint at 1 µM at least 80 µL/min/mg for CCNC(=O)Nc1sc2nccnc2c1C(=O)N1CCC(N2CCCC3(C2)CC(C)(C)OC3=O)CC1 (racemic) ?
Result: TRUE

Task: In plain terms: is recorded microsomal CLint at 1 µM at least 80 µL/min/mg for CCNC(=O)Nc1sc2ccccc2c1C(=O)N1CCC(N2CCCC3(C2)CC(C)(C)OC3=O)CC1 (racemic) ?
Result: TRUE

Task: In plain terms: is recorded microsomal CLint at 1 µM at least 80 µL/min/mg for CCNC(=O)Nc1sc2ccccc2c1C(=O)N1CCC(N2CCCC3(CCN(CC)C3=O)C2)CC1 (racemic) ?
Result: FALSE

Task: In plain terms: is recorded microsomal CLint at 1 µM at least 80 µL/min/mg for CCNC(=O)Nc1sc2nc(C)ccc2c1C(=O)N1CCC(N2CCCC3(C2)N=C(C)N(C(C)C)C3=O)CC1 (configuration not stated) ?
Result: FALSE

Task: In plain terms: is recorded microsomal CLint at 1 µM at least 80 µL/min/mg for CCNC(=O)Nc1sc2ccccc2c1C(=O)N1CCC(N2CCCC3(C2)NC(=O)N(CC)C3=O)CC1 (racemic) ?
Result: TRUE

Task: In plain terms: is recorded microsomal CLint at 1 µM at least 80 µL/min/mg for CCNC(=O)Nc1sc2ncccc2c1C(=O)N1CCC(N2CCCC3(C2)CC(C)(C)OC3=O)CC1 (racemic) ?
Result: TRUE

Task: In plain terms: is recorded microsomal CLint at 1 µM at least 80 µL/min/mg for CCNC(=O)Nc1sc2ccccc2c1C(=O)N1CCC(N2CCCC3(CC(=O)N(CC)C3=O)C2)CC1 (racemic) ?
Result: TRUE

Task: In plain terms: is recorded microsomal CLint at 1 µM at least 80 µL/min/mg for CCN1C(=O)CC2(CCCN(C3CCN(C(=O)c4c(NC(N)=O)sc5ccccc45)CC3)C2)C1=O (configuration not stated) ?
Result: FALSE

Task: In plain terms: is recorded microsomal CLint at 1 µM at least 80 µL/min/mg for CCNC(=O)Nc1sc2ccccc2c1C(=O)N1CCC(N2CCCC3(C2)C(=O)N(CC)C(=O)N3C)CC1 (racemic) ?
Result: TRUE

Task: In plain terms: is recorded microsomal CLint at 1 µM at least 80 µL/min/mg for CCN1C(=O)C2(CCCN(C3CCN(C(=O)c4c(NC(N)=O)sc5ccccc45)CC3)C2)N=C1C(C)C (racemic) ?
Result: TRUE

---

# ASSAY PROCEDURE: Clearance in human hepatic microsomes assessed per mg protein at 1 uM after 20 mins by HPLC analysis
# Assay type: ADME, Microsome
# CONDITIONS: liver microsomes, read-out: CLH
Lab note: compare microsomal CLint at 1 µM against 70 µL/min/mg. Equal or greater, write 1 (yes). Smaller, write 0 (no).

Task: In plain terms: is recorded microsomal CLint at 1 µM at least 70 µL/min/mg for CCNC(=O)Nc1sc2nc(C)ccc2c1C(=O)N1CCC(N2CCC[C@]3(CCN(C(C)C)C3=O)C2)CC1 ?
Result: 0 (no)

Task: In plain terms: is recorded microsomal CLint at 1 µM at least 70 µL/min/mg for CNC(=O)Nc1sc2ccccc2c1C(=O)N1CCC(N2CCCC3(CCN(C(C)C)C3=O)C2)CC1 (racemic) ?
Result: 0 (no)

Task: In plain terms: is recorded microsomal CLint at 1 µM at least 70 µL/min/mg for CCNC(=O)Nc1sc2ccccc2c1C(=O)N1CCC(N2CCCC3(CCN(C)C3=O)C2)CC1 (racemic) ?
Result: 0 (no)

Task: In plain terms: is recorded microsomal CLint at 1 µM at least 70 µL/min/mg for CNC(=O)Nc1sc2nc(C)ccc2c1C(=O)N1CCC(N2CCC[C@@]3(C2)CC(C)(C)OC3=O)CC1 ?
Result: 1 (yes)

Task: In plain terms: is recorded microsomal CLint at 1 µM at least 70 µL/min/mg for CNC(=O)Nc1sc2nc(C)ccc2c1C(=O)N1CCC(N2CCC[C@]3(CC(=O)N(C(C)C)C3=O)C2)CC1 ?
Result: 0 (no)

Task: In plain terms: is recorded microsomal CLint at 1 µM at least 70 µL/min/mg for CCC1=NC2(CCCN(C3CCN(C(=O)c4c(NC(N)=O)sc5ccccc45)CC3)C2)C(=O)N1CC (racemic) ?
Result: 1 (yes)

Task: In plain terms: is recorded microsomal CLint at 1 µM at least 70 µL/min/mg for CCNC(=O)Nc1sc2ccccc2c1C(=O)N1CCC(N2CCC[C@@]3(C2)CC(C)(C)OC3=O)CC1 ?
Result: 1 (yes)

Task: In plain terms: is recorded microsomal CLint at 1 µM at least 70 µL/min/mg for CCNC(=O)Nc1sc2nc(C)ccc2c1C(=O)N1CCC(N2CCCC3(C2)NC(=O)N(C(C)C)C3=O)CC1 (racemic) ?
Result: 0 (no)
